assayed-target: T1, human IL-11Rα (human, UniProt Q14626 23-363, limits assumed)
T1 construct: Protein coated on ELISA plates and used in solution for BLI; also called hIL-11Rα; hIL-11R
T1 sequence: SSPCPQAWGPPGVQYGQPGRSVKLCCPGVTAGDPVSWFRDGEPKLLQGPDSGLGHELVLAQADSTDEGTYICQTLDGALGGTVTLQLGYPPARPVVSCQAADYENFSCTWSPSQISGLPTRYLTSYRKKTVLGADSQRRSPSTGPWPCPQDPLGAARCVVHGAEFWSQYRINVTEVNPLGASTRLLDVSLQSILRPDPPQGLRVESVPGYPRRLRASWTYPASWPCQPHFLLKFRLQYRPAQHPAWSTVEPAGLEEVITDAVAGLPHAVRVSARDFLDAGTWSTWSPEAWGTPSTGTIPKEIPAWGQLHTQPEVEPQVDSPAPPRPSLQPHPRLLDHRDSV
assay-overview: competitive ELISA, IL-11R coated on plate; competitor: biotinylated TS7 (0.1 µg/mL)

{"columns": ["binder", "IC50, µg/mL"],
 "data": [
  ["mAb12 (antibody, V domains shown, Expressed as human IgG4 (S228P EU)) VH: EVQLLESGGGLVQPGGSLRLSCAASGFTFSWYSMTWVRQAPGKGLEWVSSIVPYGDLTQYADSVKGRFTISRDNSKNTLYLQMNSLRAEDTAVYYCAKGPGWYSFDLWGRGTLVTVSS VL: DIQMTQSPSSLSASVGDRVTITCQASQDINNYLNWYQQKPGKAPKLLIYDASNLQTGVPSRFSGSGSGTDFTFTISSLQPEDIATYYCQQHESQSPTFGPGTKVDIK", 3.6],
  ["mAb14 (antibody, V domains shown, Expressed as human IgG4 (S228P EU)) VH: EVQLLESGGGLVQPGGSLRLSCAASGFTFSWYSMTWVRQAPGKGLEWVSSIVPYGDLTQYAESVKGRFTISRDNSKNTLYLQMNSLRAEDTAVYYCAKGPGWGSFDLWGRGTLVTVSS VL: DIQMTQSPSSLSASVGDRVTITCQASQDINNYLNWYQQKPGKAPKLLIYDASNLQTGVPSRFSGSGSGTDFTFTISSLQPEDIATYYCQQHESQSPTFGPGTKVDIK", 2]
]}
